From: ChEMBL document CHEMBL4689842

system: Fibroblast; test: Multiplex assay against human fibroblast; type: toxicity, cell-based; conditions: 24 h, 10 µM, compound concentration 10 uM, replicate 2
Binary call on Population Pyknosed Nuclei (%) with cut-off 30%: strictly below means TRUE, and equality or higher means FALSE.

Completed entries (count: 6):
[[record]]
compound = "CCCn1c(=O)c2[nH]c(C34CC5CC(CC3C5)C4)nc2n(CCC)c1=O [ROLOFYLLINE]"
qualitative_label = "FALSE"

[[record]]
compound = "c1ccc2oc(-c3csc(C4CCN(Cc5nc6ncccc6[nH]5)CC4)n3)cc2c1"
qualitative_label = "TRUE"

[[record]]
compound = "O=C(O)c1ccc2cc(-c3ccc(O)c(C45CC6CC(CC(C6)C4)C5)c3)ccc2c1 [O-DEMETHYLATED ADAPALENE]"
qualitative_label = "TRUE"

[[record]]
compound = "CCOc1cc2ncc(C#N)c(Nc3ccc(OCc4cccc(F)c4)c(Cl)c3)c2cc1NC(=O)/C=C/CN(C)C [HKI-357]"
qualitative_label = "TRUE"

[[record]]
compound = "CC(C)(C)c1cnc(CSc2cnc(NC(=O)C3CCNCC3)s2)o1 [BMS-387032]"
qualitative_label = "FALSE"

[[record]]
compound = "CCc1cc2c(cc1CC)CC(NC[C@H](O)c1ccc(O)c3[nH]c(=O)ccc13)C2 [INDACATEROL]"
qualitative_label = "TRUE"


[Q] Dear colleague, could you confirm whether Population Pyknosed Nuclei (%) of COc1cc2c(NC3CCN(C(C)C)CC3)nc(N3CCC(F)(F)CC3)nc2cc1OCCCN1CCCC1 falls below 30%? Thanks.
[A] TRUE

[Q] Criterion: Population Pyknosed Nuclei (%) strictly below 30%. Is it met by Cc1nc(Cc2cccc(C(F)(F)F)c2)sc1-c1ccc(C(N)=O)nc1 [TP-024n] ?
[A] TRUE

---

system: Fibroblast; assay: Incucyte cell viability with human fibroblast; type: toxicity, cell-based; settings: 6 h, 10 µM, compound concentration 10 uM, replicate number 1, timepoint 6 hours; further: filed as whole numbers so only -1 and 0 and 1 occur
ASSAY_READOUT: Growth Rate

Example entries begin here.
[[record]]
compound = "c1ccc2oc(-c3csc(C4CCN(Cc5nc6ncccc6[nH]5)CC4)n3)cc2c1"
assay_readout = "Growth Rate"
result_value = 0

[[record]]
compound = "CC(=O)c1cc(-c2cc(C(=O)NC3CC3)ccc2C)c2ncccn12"
assay_readout = "Growth Rate"
result_value = 0

[[record]]
compound = "Cl.Cl.Nc1ncnc2c1c(-c1cccc(OCc3ccccc3)c1)cn2[C@H]1C[C@@H](CN2CCC2)C1"
assay_readout = "Growth Rate"
result_value = 0

[[record]]
compound = "Cn1cc(-c2ccc3occ(-c4ccccc4-c4ccccc4)c3n2)cn1"
assay_readout = "Growth Rate"
result_value = 1

[[record]]
compound = "CCCn1c(=O)c2[nH]c(C34CC5CC(CC3C5)C4)nc2n(CCC)c1=O"
assay_readout = "Growth Rate"
result_value = 0

[[record]]
compound = "C[C@@H]1CN(c2cc(-c3nn(C)c4ccc(OC5(C)CC5)cc34)ncn2)C[C@H](C)O1"
assay_readout = "Growth Rate"
result_value = 0

[[record]]
compound = "C[C@H]1CCCN1Cc1nc2cc(NC(=O)c3ccc4cnccc4c3)ccc2[nH]1"
assay_readout = "Growth Rate"
result_value = 0

[[record]]
compound = "CC1=C(C#N)C(c2ccc3c(c2)c(NC(=O)c2ccccc2C)nn3C)C(C#N)=C(C)N1"
assay_readout = "Growth Rate"
result_value = 1

[[record]]
compound = "CCC(=O)O[C@]1(C(=O)SCF)[C@H](C)C[C@H]2[C@@H]3C[C@H](F)C4=CC(=O)C=C[C@]4(C)[C@@]3(F)[C@@H](O)C[C@@]21C [FLUTICASONE PROPIONATE]"
assay_readout = "Growth Rate"
result_value = 1

[[record]]
compound = "CN(CCOc1ccc(C[C@H](Nc2ccccc2C(=O)c2ccccc2)C(=O)O)cc1)c1ccccn1.O"
assay_readout = "Growth Rate"
result_value = 1


Please give Growth Rate, item by item, for the list that follows.
1. CCCCc1nc2ccc(NC(=O)NC3CCCCC3)cc2n1Cc1ccc(-c2ccccc2C(=O)O)cc1
2. CCNC(=O)c1cc2c(N3CCOC[C@@H]3C)ccnc2[nH]1
3. O=C(NOC[C@H](O)CO)c1ccc(F)c(F)c1Nc1ccc(I)cc1F
4. CCC(=O)N[C@@H]1CC[C@H](C(=O)N(C)c2ccc(-c3nc4ccccc4o3)cc2)C1
5. CCOc1cc(N2CCC(O)CC2)ccc1Nc1ncc2c(n1)N(C1CCCC1)CCC(=O)N2C

[A]
1. 1
2. 0
3. 1
4. 0
5. 0

Batch: Growth Rate for all items listed.
1. Clc1cc2c(NC3CCCC3)nnc(-c3ccncc3)c2cc1Cl
2. CC(=O)N1CCC(c2ccc(C(=O)NC3=NCCN3)cc2C(F)(F)F)CC1
3. CN(C(=O)Cc1ccc(Cl)c(Cl)c1)C(CN1CCCC1)c1cccc(OCC(=O)O)c1.Cl (stereo not drawn)

[A]
0
1
0

---

tested on: U2OS; assay: Multiplex assay against U2OS; format: toxicity, cell-based; settings: human, 24 h, 1 µM, compound concentration 1 uM, replicate 1
Give measured Population Normal (%) for each item. Keep answers brief.
Please answer using a numeric value trailed by its unit.

Answered examples (3):
[[record]]
compound = "CNC(=O)c1cc(Oc2ccc(NC(=O)Nc3cc(C(C)(C)C)nn3-c3ccc4ncccc4c3)c(F)c2)ccn1"
assay_readout = "Population Normal (%)"
result_value = "97%"

[[record]]
compound = "O=C(O)c1ccc2cc(-c3ccc(O)c(C45CC6CC(CC(C6)C4)C5)c3)ccc2c1"
assay_readout = "Population Normal (%)"
result_value = "89%"

[[record]]
compound = "CNc1oc(-c2cccc3ccccc23)nc1C#N"
assay_readout = "Population Normal (%)"
result_value = "82%"


I would be grateful if you could provide Population Normal (%) for each of the following entries.
1. CCOc1cc2ncc(C#N)c(Nc3ccc(OCc4cccc(F)c4)c(Cl)c3)c2cc1NC(=O)/C=C/CN(C)C
2. FC(F)c1nc2ccccc2n1-c1nc(N2CCOCC2)nc(N2CCOCC2)n1

[A]
1. 97%
2. 97%

Quick batch: Population Normal (%) for everything below.
1. CC(C)Oc1ccc(C(=O)N[C@H](CNC(=O)CN(C)C)Cc2ccc(-c3cn4cccc([C@H](C)O)c4n3)cc2)cc1Cl [GSK-923295A]
2. CC(C)(C)c1cnc(CSc2cnc(NC(=O)C3CCNCC3)s2)o1
3. Cl.Cl.NC1(c2ccc(-c3nc4ccn5c(=O)[nH]nc5c4cc3-c3ccccc3)cc2)CCC1

[A]
97%
94%
98%

---

Consider the following compounds; for each one, report its Growth Rate.
tested on: HEK-293T; assay: Incucyte cell viability with HEK293T; assay type: toxicity, cell-based; settings: human, 0 h, 10 µM, compound concentration 10 uM, replicate number 2, timepoint 0 hours; further: filed as whole numbers so only -1 and 0 and 1 occur
Numbers only.

Examples with answers:
[[record]]
compound = "CC(C)N1CCC(C)(C)c2cc(C#Cc3ccc(C(=O)O)cc3)ccc21"
assayed_target = "HEK-293T"
result_value = 0

[[record]]
compound = "CCCc1cc(C)[nH]c(=O)c1CNC(=O)c1cc(-c2ccnc(N3CCN(C)CC3)c2)cc2c1cnn2C(C)C"
assayed_target = "HEK-293T"
result_value = 1

[[record]]
compound = "CCCCC[C@H](O)/C=C/[C@@H]1[C@@H](C/C=C\\CCCC(=O)O)[C@@H](O)C[C@H]1O [DINOPROST]"
assayed_target = "HEK-293T"
result_value = 0

[[record]]
compound = "CCCCc1nc2ccc(NC(=O)NC3CCCCC3)cc2n1Cc1ccc(-c2ccccc2C(=O)O)cc1"
assayed_target = "HEK-293T"
result_value = 0


State the recorded Growth Rate for every item in the following list.
1. CCn1c(-c2nonc2N)nc2cnc(Oc3cccc(NC(=O)c4ccc(OCCN5CCOCC5)cc4)c3)cc21 [GSK-269962A]
2. Cc1nc(Cc2cccc(C(F)(F)F)c2)sc1-c1ccc(C(N)=O)nc1 [TP-024n]
3. CCOc1cc(N2CCC(O)CC2)ccc1Nc1ncc2c(n1)N(C1CCCC1)CCC(=O)N2C

[A]
[0, 0, 1]

Summary for this compound, CCOC(=O)c1cc(C#N)c(N2CCC(C(=O)NS(=O)(=O)Cc3ccccc3)CC2)nc1C : Growth Rate is 0

---

For each of the compounds below, state its Population Fragmented Nuclei (%).
test system: HEK-293T; assay: Multiplex assay against HEK293T; assay type: toxicity, cell-based; settings: human, 12 h, 10 µM, compound concentration 10 uM, replicate 1
Give bare numbers, in %.

Here are 3 compounds together with their reported answers.
[[record]]
compound = "CNC(=O)c1cc(Oc2ccc(NC(=O)Nc3cc(C(C)(C)C)nn3-c3ccc4ncccc4c3)c(F)c2)ccn1"
assayed_target = "HEK-293T"
result_value = 11

[[record]]
compound = "O=C(O)c1ccc2cc(-c3ccc(O)c(C45CC6CC(CC(C6)C4)C5)c3)ccc2c1"
assayed_target = "HEK-293T"
result_value = 21

[[record]]
compound = "CC(C)(C)c1cnc(CSc2cnc(NC(=O)C3CCNCC3)s2)o1"
assayed_target = "HEK-293T"
result_value = 15


For the 4 compounds below, give their Population Fragmented Nuclei (%) values.
1. Cc1nc(Cc2cccc(C(F)(F)F)c2)sc1-c1ccc(C(N)=O)nc1 [TP-024n]
2. CN(C)CCOc1ccc(-c2nc(-c3ccncc3)c(-c3ccc4c(c3)CC/C4=N\O)[nH]2)cc1
3. CCn1c(-c2nonc2N)nc2cnc(Oc3cccc(NC(=O)c4ccc(OCCN5CCOCC5)cc4)c3)cc21 [GSK-269962A]
4. CC(C)N1CCC(C)(C)c2cc(C#Cc3ccc(C(=O)O)cc3)ccc21

[A]
[11, 12, 7, 51]

Fill in Population Fragmented Nuclei (%) for each of the 2 compounds listed.
1. CCc1cc2c(cc1CC)CC(NC[C@H](O)c1ccc(O)c3[nH]c(=O)ccc13)C2
2. N#Cc1cnc(Nc2cc(NC[C@H]3CNCCO3)c(C(F)(F)F)cn2)cn1

[A]
1: 19; 2: 10
